target: Recombinant human LOXL2 (lysyl oxidase like 2) (Homo sapiens); test: LOXL2 inhibition assay, fluorometric (cadaverine / HRP / Amplex Red); conditions: recombinant human LOXL2 130 nM; 30 min preincubation at 37° C.; 2.5 mM cadaverine; read-out: Activity Range LOXL2
Sequence (Q9Y4K0 26-774): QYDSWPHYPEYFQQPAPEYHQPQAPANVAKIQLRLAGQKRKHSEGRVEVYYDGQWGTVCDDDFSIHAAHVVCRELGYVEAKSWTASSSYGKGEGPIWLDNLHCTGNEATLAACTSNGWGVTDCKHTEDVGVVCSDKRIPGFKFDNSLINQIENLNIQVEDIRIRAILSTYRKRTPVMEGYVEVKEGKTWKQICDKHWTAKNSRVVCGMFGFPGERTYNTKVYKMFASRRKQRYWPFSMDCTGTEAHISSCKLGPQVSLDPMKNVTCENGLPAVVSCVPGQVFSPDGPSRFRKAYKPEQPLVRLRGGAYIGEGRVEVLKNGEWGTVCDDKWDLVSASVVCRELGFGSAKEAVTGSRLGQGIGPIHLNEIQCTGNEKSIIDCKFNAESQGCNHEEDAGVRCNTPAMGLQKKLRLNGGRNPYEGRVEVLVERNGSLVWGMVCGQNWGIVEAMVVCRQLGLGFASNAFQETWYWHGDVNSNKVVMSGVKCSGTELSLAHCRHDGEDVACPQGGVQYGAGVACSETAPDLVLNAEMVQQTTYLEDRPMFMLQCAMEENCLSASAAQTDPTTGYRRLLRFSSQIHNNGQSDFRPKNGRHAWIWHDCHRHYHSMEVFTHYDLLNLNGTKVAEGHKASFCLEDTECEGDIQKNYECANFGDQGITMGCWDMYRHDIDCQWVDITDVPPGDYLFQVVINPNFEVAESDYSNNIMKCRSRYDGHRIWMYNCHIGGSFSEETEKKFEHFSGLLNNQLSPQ
pIC50: −log10 of the molar value.
outcome.measure: pIC50

// below: answered compounds
- compound: "NCc1ccnc(S(=O)(=O)C[C@@H]2C[C@H](c3ccccc3)CN2S(=O)(=O)N2CCS(=O)(=O)CC2)c1 (racemic) [Example 196, 2,2,2-trifluoroacetate]"
  target.or.system: "Recombinant human LOXL2 (lysyl oxidase like 2) (Homo sapiens)"
  pIC50: "≥ 6.30"
- compound: "NCc1ccc(S(=O)(=O)C[C@H]2C[C@H](c3ccccc3)CN(S(=O)(=O)N3CCOCC3)C2)s1 (relative stereo) [Example 222T, 2,2,2-trifluoroacetate]"
  target.or.system: "Recombinant human LOXL2 (lysyl oxidase like 2) (Homo sapiens)"
  pIC50: "≥ 6.30"

Reported pIC50 ( NCc1ccnc(S(=O)(=O)C[C@@H]2C[C@H](c3ccc(F)cc3)CN2S(=O)(=O)N2CCS(=O)(=O)CC2)c1 (racemic) [Example 206, 2,2,2-trifluoroacetate] ) = ≥ 6.30

Reported pIC50 ( NCc1ccnc(OC[C@@H]2C[C@H](c3ccc(F)cc3)CN2S(=O)(=O)N2CCOCC2)c1 (racemic) [Example 212, 2,2,2-trifluoroacetate] ) = ≥ 6.30

Reported pIC50 ( NCc1ccc(S(=O)(=O)C[C@@H]2C[C@H](c3ccccc3F)CN2S(=O)(=O)N2CCS(=O)(=O)CC2)s1 (racemic) [Example 209, 2,2,2-trifluoroacetate] ) = ≥ 6.30

Reported pIC50 ( NCc1ccc(S(=O)(=O)C[C@@H]2C[C@H](c3ccccc3)CN(S(=O)(=O)N3CCOCC3)C2)s1 (racemic) [Example 222, 2,2,2-trifluoroacetate] ) = ≥ 6.30

Reported pIC50 ( NCc1ccnc(OC[C@H]2C[C@H](C3CCCCC3)CN(S(=O)(=O)N3CCOCC3)C2)c1 [Example 231T] ) = ≥ 6.30

Reported pIC50 ( NCc1ccnc(S(=O)(=O)C[C@H]2C[C@H](C3CCCCC3)CN(S(=O)(=O)N3CCOCC3)C2)c1 (relative stereo) [Example 230T, 2,2,2-trifluoroacetate] ) = ≥ 6.30

###

Target: Bovine lysyl oxidase (LOX) (Bos taurus)
Sequence (P33072 170-418): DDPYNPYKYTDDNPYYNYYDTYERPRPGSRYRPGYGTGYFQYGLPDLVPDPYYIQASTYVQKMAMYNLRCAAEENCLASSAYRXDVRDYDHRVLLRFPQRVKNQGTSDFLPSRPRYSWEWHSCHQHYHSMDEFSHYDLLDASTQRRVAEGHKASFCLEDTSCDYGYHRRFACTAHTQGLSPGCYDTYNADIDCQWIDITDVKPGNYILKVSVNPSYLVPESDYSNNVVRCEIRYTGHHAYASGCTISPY
pIC50: −log10 of the molar value.
outcome.measure: pIC50

// below: answered molecules
- molecule: "NCc1ccc(S(=O)(=O)C[C@@H]2C[C@H](c3ccc(F)cc3)CN2S(=O)(=O)N2CCOCC2)s1 (racemic) [Example 208, 2,2,2-trifluoroacetate]"
  target.or.system: "Bovine lysyl oxidase (LOX) (Bos taurus)"
  pIC50: "≥ 6.30"
- molecule: "NCc1ccnc(S(=O)(=O)C[C@H]2C[C@@H](c3ccccc3)CN2S(=O)(=O)N2CCOCC2)c1 (single isomer, unassigned) [Example 195A]"
  target.or.system: "Bovine lysyl oxidase (LOX) (Bos taurus)"
  pIC50: "4.52 to 6.00"

// moving on: another record for pIC50
Reported pIC50 ( NCc1ccnc(S(=O)(=O)C[C@@H]2C[C@H](c3ccc(F)cc3)CN2S(=O)(=O)N2CCS(=O)(=O)CC2)c1 (racemic) [Example 206, 2,2,2-trifluoroacetate] ) = 4.52 to 6.00
